Test system: Staphylococcus vitulinus
Test: Antibacterial activity against mecA-negative Staphylococcus vitulinus SVMN09 by agar dilution method
Format: functional
Settings: Mammaliicoccus vitulinus
Overview of reported MIC across a group of molecules:
// note: answer is a bare numeric in µg/mL

CO[C@@]1(NC(=O)Cc2cccs2)C(=O)N2C(C(=O)O)=C(COC(N)=O)CS[C@@H]21: 1
CO/N=C(\C(=O)N[C@@H]1C(=O)N2C(C(=O)O)=CCS[C@H]12)c1csc(N)n1: 0.5
Cc1onc(-c2ccccc2)c1C(=O)N[C@@H]1C(=O)N2[C@@H]1SC(C)(C)[C@@H]2C(=O)O: 0.5

**Query** Sample "CO/N=C(\C(=O)N[C@@H]1C(=O)N2C(C(=O)O)=C(CSc3nc(=O)c(O)nn3C)CS[C@H]12)c1csc(N)n1" — what was its MIC?
**Result** 2

Reference source: ChEMBL document CHEMBL1687776
